Data provenance is paper PMC4066849.

molecular target: UniProt:Q8BGV8
Sequence (Q8BGV8 134-463): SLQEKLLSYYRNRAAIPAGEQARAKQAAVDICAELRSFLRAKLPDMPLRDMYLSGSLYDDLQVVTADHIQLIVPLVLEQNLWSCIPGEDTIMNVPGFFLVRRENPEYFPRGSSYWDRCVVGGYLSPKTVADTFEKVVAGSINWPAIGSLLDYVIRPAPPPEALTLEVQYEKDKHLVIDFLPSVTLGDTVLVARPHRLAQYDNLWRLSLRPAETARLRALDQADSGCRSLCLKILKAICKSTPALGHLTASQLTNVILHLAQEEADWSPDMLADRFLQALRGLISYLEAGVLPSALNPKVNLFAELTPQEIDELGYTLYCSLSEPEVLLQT
ASSAY_METRIC: pKd
// pKd is dimensionless: -log10 of concentration (M)

Note down pKd recorded for CNc1ccccc1C(=O)O[C@H]1[C@@H](O)[C@H](n2cnc3c(=O)[nH]c(N)nc32)O[C@@H]1COP(=O)(O)OP(=O)(O)O [MANT-GDP] 5.10
